MEASUREMENT DESCRIPTION: yeast display, Sf9 membrane polyspecificity reagent, FACS + sequencing; frameworks hold sequencing errors
MEASUREMENT NAME: polyreactivity (PSR sort gate)

Known polyreactivity (PSR sort gate) results, listed for orientation:
{"RECORD SEQUENCE": "QVQIVESGGGLVQAGGSLRISCAASGRTFVYNTMGWSRQAPGKERELVAAITDRGTSTFYADSVKGRFTISRDNAKNTVDLQMNSLKPEDTAVYYCAKDWLVTEFDYWAQGTQVTVSS", "DATA VALUE": "low polyreactivity"}
{"RECORD SEQUENCE": "QVQLVESGGGLVQAGGSLRLSCAASGSTFLYYAMGWYRQAPGKERELVAVISWSGVSTYYADSVKGRFTISRDNAKNTVYLQMNSLKPEDTPVYYCNTGNQYIRTYGYWGQGSQVTVSS", "DATA VALUE": "low polyreactivity"}
{"RECORD SEQUENCE": "QVQLVESGGGLVQAGGSLRLSFAASGIIFGWYAVGWYRQAHGKDRELVAAINIGGSTNYADSVKGRFTISRYNAKNTVYLQMNSLKPEDTADYYCNARTPGYRYGRDYWGQGTQVTVSS", "DATA VALUE": "high polyreactivity"}
{"RECORD SEQUENCE": "QVQLVESGGGLVQAGGSLRLSCAASGFTFASYAMGWYRQAPGKEREFVAAITRSGGSTYYADSVKGRFTISRDNAKNTVYLQMNSLKPEDTAVYYCNRVTSSEFDYWGQGTQVTVSS", "DATA VALUE": "high polyreactivity"}
{"RECORD SEQUENCE": "QVQLVETGAGLVQAGGSLRLSSAASGRTLYPYAMGWSRQSPGNERELVAAISSRGGSTYYADSVKGRFTISRDIAKNTVYLQMNSLKPEDTAVYYCAKTYRKILSITGDVPWTDYYWGQGTQVTVSS", "DATA VALUE": "low polyreactivity"}

Can you share its polyreactivity (PSR sort gate)? I mean this sequence: QVQLVESGGGLVQAGGSLRLSCAASGSIFTFYAMGWYRQAPVKERELVAGIRWRGGTSTFYADSVKGRFTISRDNAKNTVYLQMNSLKPEDTAVYYCAAKRRTGGNGYWGQGTQVTVSS
high polyreactivity

Can you share its polyreactivity (PSR sort gate)? I mean this sequence: QVQLVESGGGLVQAGGSLRLSCAASGNTFGFNTMGWYRQAPGKERELVAAISKSGTRTFYADSVKGRFTISRDNAKNTVYLQMNSLKPEDTAVYYCAAVAKGGNWPAQGGGHDYWGQGTQVTVSS
high polyreactivity

Can you share its polyreactivity (PSR sort gate)? I mean this sequence: QVQLVESGGGLVQAGGSLRISCAASGRIFYFNTMGWYRQAPGKERELVAAISLSGGRTYYADSVKGRFTISRDNAKNTVYLQMNSLKREDSAVYYCNAVARSRSRDTSKGDYWGQGTQVTVSS
high polyreactivity

Can you share its polyreactivity (PSR sort gate)? I mean this sequence: QVQLQESGAGLEQAGGSLRMSCAASGYSSDIGTMGWYRQAPGKEREFVATIVVGSTTNYADSVKGRFTISRDNAKNTVYLQPESGRYRGVLLRGWLLAVGKFTYWGQGTQETVSS
low polyreactivity

Can you share its polyreactivity (PSR sort gate)? I mean this sequence: QVQLVESGGGLVQAGGSLRLSCAASGSTFGYYAMGWYRQAPGKERELVATINWSGGSTYYADSEKGRFTISRDNAKNTVYLQMISLKPEDTAVYYCAADPYLQYYWAYDYWGQGTQVTVSS
low polyreactivity

Can you share its polyreactivity (PSR sort gate)? I mean this sequence: QVQLVESGGGLVQAGGSLRLSCAASGFIFYPYAMGWYRQAPGKERELVAVITSGGRTYYADSVKGRFTISRDNAKNTVYLQMNSLKPEDTAVYYCAARYGRIHWKANWPEYGYWGQGTQVTVSS
low polyreactivity

----------
MEASUREMENT DESCRIPTION: yeast display, Sf9 membrane polyspecificity reagent, FACS + sequencing; frameworks hold sequencing errors
MEASUREMENT NAME: polyreactivity (PSR sort gate)

Known polyreactivity (PSR sort gate) results, listed for orientation:
{"RECORD SEQUENCE": "QVQLVESGGGLVQAGGSLRLSCAASGSTIYFNGMGWYRQAPGKERELVAAITSGGSTDYADSVKGRFTISRDNAKNTVDLQMNSLKPEDTAVYYCAADGEDSLWTGYDYDYWGQGTQVTVSS", "polyreactivity (PSR sort gate)": "low polyreactivity"}
{"RECORD SEQUENCE": "QVQLEESGVGLVQAGGSLRLSCAASGFTFYYNAMGWYRQAPGKERELVAGITWSGGSTYYADSVKGRFTISRDNAKNTVYLQMNSLKPEDTAVYYFAKDHQDSDYDYWGQGTQVTVSS", "polyreactivity (PSR sort gate)": "high polyreactivity"}
{"RECORD SEQUENCE": "QVQLVESGGGLVQAGGSLRLSCGASGGFFYFNAMGRYRQAPGKEREVVASITWSGGNTYYADSVKGRFTISRDNAKHTVDLQMNSLTPEDTAVYYCAADTLEYRPTYDYWGQGTQVTVSS", "polyreactivity (PSR sort gate)": "low polyreactivity"}
{"RECORD SEQUENCE": "QVQLVESGGGLVQAGGSLRLSCAASGRIFLDYVMGWYRQAPGKERELVAAISWSGDRTDYADSVKGRFTISRDNAKNTVYLQMNSLKPEDTAVYYCASTWYFAYSDDYKFDYWGQGTQVTVSS", "polyreactivity (PSR sort gate)": "low polyreactivity"}
{"RECORD SEQUENCE": "QVQLVESGGGLVQAGGSLRLSCAASGFTFSFYSMGWYRQAPGKERELVASISDSDGITFYADSVKGSFTISRDNAKNTVYLQMNSLKPEDTAVYYCAADVAIAIPFSYDYWGQGTQVTVSS", "polyreactivity (PSR sort gate)": "low polyreactivity"}
{"RECORD SEQUENCE": "QVQLVESGGGLVQAGGSLRLSCAASGSTFNTYAMGWYRQAPGKERELVASIRLRGGSTYYADSVKGRFTISRDNAKNTVYLQMNSLKPEDTAVYYCAARTWPWVLGGTQDDYWGQGTQVTVSS", "polyreactivity (PSR sort gate)": "low polyreactivity"}

Can you share its polyreactivity (PSR sort gate)? I mean this sequence: QVQLVESGGGLVQAGGSLRLSCAASGFTLSRYAMGWYRQAPGKERELVAAIRWSGGSTYYADSVKGRFTISRDNAKNTVYLQMNSLKPEDTAVYYCATRYYLKFLDGYNYWGQGTQVTVSS
high polyreactivity

Can you share its polyreactivity (PSR sort gate)? I mean this sequence: QVQHVESGAGLVQAGGSLRLSCAASGRIFSRYAMGWYRQAPGKERELVAAISERGASTYYADSVKGRFTISRDNAKNTVYLQMNSLKPEDTAVYYCAAKRGSGYGYWGQGTQVTVSS
high polyreactivity

Can you share its polyreactivity (PSR sort gate)? I mean this sequence: QVQLVESGGCLVQAGGSHRLSCAASGSIFKYYTMGWYRQAPGKERELDAAITTRGTSTNYADSVKGRFTISRDNAKHTVYFQMNSLKPEDTAVYYCAARLSSLISMNYWGQGTQVTVSS
high polyreactivity

Can you share its polyreactivity (PSR sort gate)? I mean this sequence: QVQLVESGGGLVQAGGSLRLSCAASGSTFTRYDMGGYRHAPGKERELVAAISKSGGSTYYADSVKGRFTISRDNAKNTVYLQMNSLKPEDTAVYYCARGSTKYHIYSLDYWGQGTQVTVSS
low polyreactivity

Can you share its polyreactivity (PSR sort gate)? I mean this sequence: QVQLQESGGGLVQAGRSQRLSCAASGYIFYFQYMGWYRQAPGKEREFVAAISDGANTNYADSVKGRFTISRDNAKNSEYLQMNSLKPEDTAVYYCAVYADENYYYIYWGQGTQVTVSS
low polyreactivity

Can you share its polyreactivity (PSR sort gate)? I mean this sequence: QVQLVESGGGLVQAGGSLRLSCAATGSIFYVNAMGWYRQAPGKERELVAVNADSVKGRFTISRDNAKNTVYLQMNSLKPEDTAVYYCAAGVNSTTRIYDYWGQGTQVTVSS
low polyreactivity

Can you share its polyreactivity (PSR sort gate)? I mean this sequence: QVQLVESGGGLVQAGGSLRLSCAASGSIFKYNAMGWYRQAPGKEREFVAAISRSGGSTYYADSVKGRFTISRDNAKNTVYLQMNSLKPEDTAVYYCATTSRYSWSDYWGQGTQVTVSS
high polyreactivity

Can you share its polyreactivity (PSR sort gate)? I mean this sequence: QVQLVESGGGLVQAGGSLRLICAASGSTFAIYAMGWYRPAPGKERELVAAITGRSGSTYYADSVKGRFTISRDNAKNTVFLQMNSLKPEDTAVYYCAAQGGYRRTPYIHRDYWGQGTQVTVSS
high polyreactivity

Can you share its polyreactivity (PSR sort gate)? I mean this sequence: QVQLVESWGGLVQSGGSLRLICAASGSTNQYNAMGWYRQAPGKERELVAAISLSGATTYYADSVKGRCTISRDPAKNTVYLQMNIQKPEDTSVYYCAADFGWFYDCVAVWFIRILGDYWGQGTQVTVSS
low polyreactivity

Can you share its polyreactivity (PSR sort gate)? I mean this sequence: QVQHVESGGGLVQAGGSLRLSCAASGFTFQSYPMGWYRQAPGKERELVAAITRRGTRTYYADSVKGRFTISRDNAKNTVYLQLNSLKPEDTAVYYCAARSPKLEFDYWGQGTQVTVSS
high polyreactivity

Can you share its polyreactivity (PSR sort gate)? I mean this sequence: QVHLVESGGGLVQAGGSLRLSCAASGIILYGYAMGWYRQAPGKERELVAAITKSGGSTYYADSVKGRFTISRDNAKNTVYLLMNSLKPEDTAVYYCAAKLWGIWYYGYRPDDYWGQGTQVTVSS
low polyreactivity

Can you share its polyreactivity (PSR sort gate)? I mean this sequence: QVQLVESGAGLVQAGGSLRISCAASGRIFHYALGWYRQAPGKERELVAGISKRGGSTYYADSVKGRFTISRDNAKNTVYLQMNSLKPEDTAVYYCAAGRAYDGTKHDYWGQGTQVTVSS
high polyreactivity

Can you share its polyreactivity (PSR sort gate)? I mean this sequence: QVQLVESGGGLVQAGGSLRLSCAASGFIFTFYAMGWYRQAPGKERELVAAISSSGGSTYYADSVKGRFTISRDNAKNTVYLQMNSLKPEDTAVYYCNAVRYHARSGWSDYWGQGTQVTVSS
high polyreactivity

Can you share its polyreactivity (PSR sort gate)? I mean this sequence: QVQLVESGGGLVQAGGSLRLSCAASGRIFDVYAMGWYRQAPGKERALVAAITFSGGSTYYADSVKGRFTISRDNAKNTVYLQMNSLKPEDTAVYYCAAEYVDWFGDYDYWGQGTQVTVSS
high polyreactivity

Can you share its polyreactivity (PSR sort gate)? I mean this sequence: QVQHVESGGGLVQAGGSLRLSCAASGFIIQGNAMGWYRQAPGKERELVAAISSSVSTYYADSVKGRFTISRDNAKNTVYLQMNSLKPEDTAVYYCNAGFPLSLWLGDYWGQGTQVTVSS
low polyreactivity

Cited source: the nanobody polyreactivity screen of Harvey et al. (2022)
